Source listed as patent US20220112288A1.

- measured.target: T1, human CD4 on cells (SKW3 cells; human PBMCs) (human, UniProt P01730 26-458)
- T1 construct: whole, on cells; The SKW3 CD4 knockout cells served as the negative cell line; also called hCD4
- method: FACS primary screen, non-clonal supernatant; SKW3 vs SKW3 CD4 KO cells, anti-mouse Fc 647 detection
Answer each item with its documented SKW3 WT vs KO, anti-mFc-647 (ratio).
One number for each entry, in ratio.

75110_10N21A (antibody, V domains shown, Tested as non-clonal hybridoma supernatant from AlivaMab Mouse Kappa mice, detected with anti-mouse Fc and anti-human Kappa) VH: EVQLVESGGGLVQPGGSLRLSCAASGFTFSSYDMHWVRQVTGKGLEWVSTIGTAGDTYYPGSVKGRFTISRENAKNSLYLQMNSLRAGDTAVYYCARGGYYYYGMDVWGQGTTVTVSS VL: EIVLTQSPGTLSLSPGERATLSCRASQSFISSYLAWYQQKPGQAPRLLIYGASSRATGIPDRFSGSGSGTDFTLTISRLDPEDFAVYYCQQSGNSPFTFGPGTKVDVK    3.1
75110_10K21A (antibody, V domains shown, Tested as non-clonal hybridoma supernatant from AlivaMab Mouse Kappa mice, detected with anti-mouse Fc and anti-human Kappa) VH: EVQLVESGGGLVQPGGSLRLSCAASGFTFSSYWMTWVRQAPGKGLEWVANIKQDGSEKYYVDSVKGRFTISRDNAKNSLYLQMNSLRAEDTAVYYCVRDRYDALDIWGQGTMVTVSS VL: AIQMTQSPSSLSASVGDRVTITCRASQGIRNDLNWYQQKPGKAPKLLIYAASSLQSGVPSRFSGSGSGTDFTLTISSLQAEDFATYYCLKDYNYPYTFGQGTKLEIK    2.6

Query string: Can you share its SKW3 WT vs KO, anti-mFc-647 (ratio)? I mean this binder: 75110_01H18A (antibody, V domains shown, Tested as non-clonal hybridoma supernatant from AlivaMab Mouse Kappa mice, detected with anti-mouse Fc and anti-human Kappa) VH: QVQLQQWGAGLLKPSETLSLTCAVYGGSFSGYYWSWIRQSPGKGLEWIGEINQSGSTNYNPSLKSRVTISVDTSKNQFSLKLSSVTAADTAVYYCARVINWFDSWGQGTLVTVSS VL: DIQMTQSPSSVSASVGDRVTITCRASQGISSWLAWYQQKPGKAPKLLIYAASSFQSGVPSRFSGSGSGTDFTLTISSLQTEDFATYYCQQANSFPYTFGQGTRLEIK
Result string: 3.6
